- measurement_target: UniProt Q687E1
- assay_protocol: Enzymatic test of soluble NPPase from barley leaves: kinetic parameters, substrate specificity, effectors
- run_conditions: qualitative
experimental_readout: hydrolysis by NPPase (substrate recognition)

[
  {
    "compound": "O=C[C@H](O)[C@@H](O)[C@H](O)[C@H](O)COP(=O)(O)O [G6P, glucose-6-phosphate]",
    "result": "does not hydrolyse"
  },
  {
    "compound": "O=C(O)[C@H](O)COP(=O)(O)O [3-phosphoglycerate]",
    "result": "does not hydrolyse"
  }
]

====

- measurement_target: NPPase from barley leaves (Hordeum vulgare, UniProt Q687E1)
- Sequence (Q687E1 19-368): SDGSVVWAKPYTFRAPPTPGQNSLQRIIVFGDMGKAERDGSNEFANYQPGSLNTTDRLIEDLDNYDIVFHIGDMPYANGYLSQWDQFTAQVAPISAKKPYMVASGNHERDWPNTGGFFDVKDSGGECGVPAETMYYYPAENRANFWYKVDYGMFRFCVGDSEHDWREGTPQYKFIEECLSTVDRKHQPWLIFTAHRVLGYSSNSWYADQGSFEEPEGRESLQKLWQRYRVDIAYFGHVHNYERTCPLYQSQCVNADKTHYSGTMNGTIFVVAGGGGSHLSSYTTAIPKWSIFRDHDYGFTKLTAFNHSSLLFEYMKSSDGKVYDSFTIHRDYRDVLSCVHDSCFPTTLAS
- assay_protocol: Enzymatic test of soluble NPPase from barley leaves: kinetic parameters, substrate specificity, effectors
- run_conditions: Vmax in % in relation to ADPG; NPPase from barley leaves

[
  {
    "compound": "O=[N+]([O-])c1ccc(OP(=O)(O)Oc2ccc([N+](=O)[O-])cc2)cc1 [bis-PNPP, bis-paranitrophenylphosphate]",
    "unit_annotation": "%",
    "Vmax": 100
  },
  {
    "compound": "Nc1nc2c(ncn2[C@@H]2O[C@H](COP(=O)(O)OP(=O)(O)O[C@H]3O[C@H](CO)[C@@H](O)[C@H](O)[C@@H]3O)[C@@H](O)[C@H]2O)c(=O)[nH]1 [GDPmannose, GDP-mannose]",
    "unit_annotation": "%",
    "Vmax": 30
  },
  {
    "compound": "Nc1ccn([C@@H]2O[C@H](COP(=O)(O)OP(=O)(O)O[C@H]3O[C@H](CO)[C@@H](O)[C@H](O)[C@H]3O)[C@@H](O)[C@H]2O)c(=O)n1 [CDPG, CDP-glucose]",
    "unit_annotation": "%",
    "Vmax": 114
  },
  {
    "compound": "Nc1ncnc2c1ncn2[C@@H]1O[C@H](COP(=O)(O)OP(=O)(O)O[C@H]2O[C@H](CO)[C@@H](O)[C@H](O)[C@H]2O)[C@@H](O)[C@H]1O [ADPG, ADPglucose]",
    "unit_annotation": "%",
    "Vmax": 100
  },
  {
    "compound": "O=[N+]([O-])c1ccc(OP(=O)(O)O)cc1 [PNPP]",
    "unit_annotation": "%",
    "Vmax": 100
  }
]

====

- measurement_target: UniProtKB Q687E1
- assay_protocol: Enzymatic test of soluble NPPase from barley leaves: kinetic parameters, substrate specificity, effectors
- run_conditions: qualitative
experimental_readout: effect on NPPase activity (inhibition)

[
  {
    "molecule": "Nc1ncnc2c1ncn2[C@@H]1O[C@H](COP(=O)(O)OP(=O)(O)O)[C@@H](O)[C@H]1O",
    "result": "inhibited"
  },
  {
    "molecule": "Nc1ncnc2c1ncn2[C@@H]1O[C@H](COP(=O)(O)O)[C@@H](O)[C@H]1O",
    "result": "inhibited"
  },
  {
    "molecule": "O=C(O)[C@H](O)COP(=O)(O)O [3-phosphoglycerate]",
    "result": "inhibited"
  }
]

====

- measurement_target: UniProtKB Q687E1
- assay_protocol: Enzymatic test of soluble NPPase from barley leaves: kinetic parameters, substrate specificity, effectors
- run_conditions: Vmax in % in relation to ADPG; NPPase from barley leaves
# Lookup of reported Vmax keyed by entry

[
  {
    "structure_smiles_string": "Nc1ncnc2c1ncn2[C@@H]1O[C@H](COP(=O)(O)OP(=O)(O)O[C@H]2O[C@H](CO)[C@@H](O)[C@H](O)[C@@H]2O)[C@@H](O)[C@H]1O",
    "Vmax / %": 30
  },
  {
    "structure_smiles_string": "NC(=O)c1ccc[n+]([C@@H]2O[C@H](COP(=O)(O)OP(=O)(O)OC[C@H]3O[C@@H](n4cnc5c(N)ncnc54)[C@H](O)[C@@H]3O)[C@@H](O)[C@H]2O)c1",
    "Vmax / %": 100
  },
  {
    "structure_smiles_string": "Nc1ncnc2c1ncn2[C@@H]1O[C@H](COP(=O)(O)OP(=O)(O)O)[C@@H](O)[C@H]1O",
    "Vmax / %": 40
  }
]
